test system: SR leukemia; experiment: NCI tumour cell line growth inhibition, 48 h; in the data active means GI50 below about 0.43 µM; inactive means the rest
Use one of these outcomes when replying: Yes (active), No (inactive)

## Task For `O=c1oc2ccc(F)cc2c(=O)n1-c1ccc(I)cc1F` , which call appears in the assay record?
## Result Yes

## Task Could you kindly confirm the outcome this assay logged for `COc1ccc(NC(=O)c2ccc(C(F)(F)F)nc2Nc2ccc(Cl)cc2C)cc1Cl` ?
## Result No

## Task How was `C=C[C@@H]1CCC/C=C/[C@@H]2C[C@H](O)C[C@H]2[C@H](O)/C=C/C(=O)O1` classified in this test?
## Result No

## Task Lab log entry: `CC[C@H](C)[C@H](NC(=O)c1ncccn1)C(=O)N(C)[C@H](C[C@@H](OC(C)=O)c1nc(C(=O)N[C@@H](Cc2ccccc2)C[C@H](C)C(=O)OC)cs1)C(C)C` — outcome as called in the assay?
## Result Yes

---

Please respond with reported TGI for every item in the list.
test system: A498 renal; assay: NCI tumour cell line growth inhibition, 48 h

## Task For A498 renal, give the measured TGI of the entry Nc1ccc2nc3n(c2c1)C(c1c(F)cccc1F)SC3 (stereo unspecified)
## Result > 100 µM

## Task Given Cn1cnc(SC2=CC(=O)C=C3S[C@H]4C[C@@]23c2c(c(O)c3c5c2=NCCC=5C=N3)N4)c1CC(N)C(=O)O (stereo partly specified) , report its TGI on A498 renal.
## Result 32.7 µM

## Task State TGI on A498 renal. Entry: COc1cccc(C2SC(C)C(=O)N2NC(=O)C(O)c2ccccc2)c1 (stereo unspecified)
## Result > 100 µM

## Task Provide TGI, tested on A498 renal, for `N#Cc1c(N)c(C(=O)c2ccc3c(c2)OCCO3)n2c1CCCC2` .
## Result 8.03 µM

## Task Give measured TGI for OCC1CC2C=CCC(C2)C1 (stereo unspecified) (A498 renal).
## Result > 100 µM

## Task For A498 renal, give the measured TGI of the entry `COc1ccc(OC)c(-c2cc(-c3ccc(Cl)cc3)nn2-c2ccccc2)c1`
## Result 59.7 µM

## Task For A498 renal, give the measured TGI of the entry `CC1(C)N=C(N)N=C(N)N1c1cccc(CCCCc2ccc(Cl)c(S(=O)(=O)F)c2)c1`
## Result 52.9 µM

## Task Please respond with reported TGI (system A498 renal) for CC12CP(=O)(O)CC1C2(Cl)Cl (stereo unspecified) .
## Result > 100 µM

## Task Please tell me the measured TGI for `COc1ccc(-c2c(NC(=O)Nc3ccc(Cl)c(C(F)(F)F)c3)cnn2-c2ccc(S(N)(=O)=O)cc2)cc1` ; system: A498 renal.
## Result 8.29 µM

## Task Recall the reported TGI of `COc1cc(/C=C2\N=C(c3ccccc3)N(c3nc4ccccc4s3)C2=O)cc(OC)c1OC` on A498 renal and write it down.
## Result > 100 µM

## Task Answer with TGI of `CCN(CC)CCOCCOCC1(c2ccc(Cl)c(Cl)c2)CCCCC1` measured for A498 renal.
## Result 27.6 µM

## Task Give A498 renal TGI for the following molecule: Cc1cn(C(CO)OC(CO)CN(O)C2C3CC4CC(C3)CC2C4)c(=O)[nH]c1=O (stereo unspecified)
## Result > 100 µM

## Task Provide measured TGI on A498 renal for Cc1cn(CCCCOC(=O)NC(CCCN=C(N)N)C(=O)O)c(=O)[nH]c1=O (stereo unspecified) please.
## Result > 100 µM

## Task Please respond with reported TGI (system A498 renal) for `N#CC1(C#N)C(=O)c2ccncc2C1=O` .
## Result > 100 µM

## Task Recall the reported TGI of `CC1=C/C(=N\NS(=O)(=O)c2ccc([N+](=O)[O-])cc2)CC(C)(C)C1` when tested on A498 renal.
## Result > 100 µM

## Task Provide the reported TGI (system: A498 renal) for `COc1cc(/C=C2\C[C@H]3[C@@H]4CC=C5C[C@@H](O)CC[C@]5(C)[C@H]4CC[C@]3(C)[C@H]2O)ccc1OCCN1CCCCC1`
## Result 31.3 µM

## Task Report measured TGI on A498 renal; entry: `CCOC(=O)c1ccc(Nc2nc3ccccc3n3cccc23)cc1`
## Result > 100 µM

## Task Retrieve TGI on A498 renal; query `CCOP(=O)(OCC)/C(=C\n1ccc(=O)[nH]c1=S)C(=O)OC`
## Result > 100 µM

## Task Quote TGI with test system A498 renal for `COC(=O)c1ccc(Oc2nc3ccc(C(F)(F)F)cc3nc2-c2ccccc2)cc1`
## Result > 100 µM

## Task Please look at `CCCC(=O)Oc1c2ccsc2c(OC(=O)CCC)c2ccsc12` and tell me its recorded TGI on A498 renal.
## Result 7.34 µM

## Task Report its TGI with A498 renal as the test system: COc1c(O)cc2c(c1O)C(=O)C(Cc1ccc(O)cc1)CO2 (stereo unspecified)
## Result > 100 µM
